Values were extracted from ChEMBL document CHEMBL1129982.

tested-target: Endothelin-1 receptor (Homo sapiens, UniProt P25101)
protocol-details: Binding affinity against human cloned endothelin A receptor expressed in LTK-cells
measurement-kind: pIC50
Interpret pIC50 as the negative base-10 log of the concentration measured in mol/L.

Reference set (8 entries):
Identify measured pIC50 corresponding to COc1ccc(C2(O)OC(=O)C(c3ccc4c(c3)OCO4)=C2Cc2cccc(C(=O)O)c2)cc1 (stereo not drawn)
7.30

Identify measured pIC50 corresponding to COc1ccc(C2(OC)OC(=O)C(c3ccc4c(c3)OCO4)=C2Cc2ccccc2)cc1 (stereo not drawn)
6.52

Identify measured pIC50 corresponding to COc1ccc(C2(O)OC(=O)C(c3cc(OC)c(OC)c(OC)c3)=C2Cc2ccccc2)cc1 (stereo not drawn)
5.89

Identify measured pIC50 corresponding to COc1ccc(C2(O)OC(=O)C(c3ccc4c(c3)OCO4)=C2Cc2ccc(O)cc2)cc1 (stereo not drawn)
8.10

Identify measured pIC50 corresponding to COc1ccc(C2(O)OC(=O)C(c3cc(OC)c4c(c3)OCO4)=C2Cc2ccccc2)cc1C (stereo not drawn)
8.09

Identify measured pIC50 corresponding to COc1ccc(C2(O)OC(=O)C(c3ccc4c(c3)OCO4)=C2Cc2ccc(NC(C)=O)cc2)cc1 (stereo not drawn)
8.92

Identify measured pIC50 corresponding to COc1ccc(C2(O)OC(=O)C(c3ccc4c(c3)OCO4)=C2Cc2ccc(OC)c(OC)c2OC)cc1 (stereo not drawn)
7.92

Identify measured pIC50 corresponding to COc1ccc(C2(O)OC(=O)C(c3ccc4c(c3)OCO4)=C2Cc2ccc(Cl)c(Cl)c2)cc1 (stereo not drawn)
6.82

New cases:
Identify measured pIC50 corresponding to COc1ccc(C2(O)OC(=O)C(c3ccc4c(c3)OCO4)=C2Cc2cccc(OC)c2OC)cc1 (stereo not drawn)
7.96

Identify measured pIC50 corresponding to CC(C)Oc1ccc(C2(O)OC(=O)C(c3ccc4c(c3)OCO4)=C2Cc2ccccc2)cc1 (stereo not drawn)
5.94

Identify measured pIC50 corresponding to COc1ccc(C2(O)OC(=O)C(c3ccc4c(c3)OCO4)=C2Cc2ccccc2)c(OC)c1 (stereo not drawn)
7.89

Identify measured pIC50 corresponding to COc1ccc(C2(O)OC(=O)C(c3ccc4c(c3)OCO4)=C2Cc2ccccc2)cc1C (stereo not drawn)
7.92

Identify measured pIC50 corresponding to COc1ccc(C2(O)OC(=O)C(c3ccc4c(c3)OCO4)=C2Cc2cc(OC)c3c(c2)OCO3)cc1 (stereo not drawn)
7.85

* * *

protocol-details: Mean of apparent terminal phase elimination half-life in oral (5 mg/kg) fasted dogs
Format: ADME, organism-based, Canis lupus familiaris
test-settings: dog, in vivo
measurement-kind: half-life (h)
Give just the number in h; leave the unit off.

Identify measured half-life corresponding to COc1ccc(C2(O)OC(=O)C(c3ccc4c(c3)OCO4)=C2Cc2cc(OC)c(OC)c(OC)c2)cc1 (stereo unspecified) [PD-156707]
1.2

* * *

Below, each of the compounds is paired with its reported pIC50 value.
tested-target: Endothelin-1 receptor (Homo sapiens, UniProt P25101)
Sequence (P25101 whole entry): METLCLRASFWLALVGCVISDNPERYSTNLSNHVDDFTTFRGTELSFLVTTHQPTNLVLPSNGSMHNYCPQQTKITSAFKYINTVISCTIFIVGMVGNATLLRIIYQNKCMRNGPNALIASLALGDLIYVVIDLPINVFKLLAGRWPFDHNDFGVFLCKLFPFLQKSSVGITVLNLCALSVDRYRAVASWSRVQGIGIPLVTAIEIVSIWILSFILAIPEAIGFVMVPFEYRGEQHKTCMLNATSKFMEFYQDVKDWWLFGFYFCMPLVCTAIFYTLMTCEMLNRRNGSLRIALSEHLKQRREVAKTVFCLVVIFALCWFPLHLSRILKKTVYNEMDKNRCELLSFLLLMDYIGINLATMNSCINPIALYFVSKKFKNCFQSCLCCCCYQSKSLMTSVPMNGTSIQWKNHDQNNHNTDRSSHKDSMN
protocol-details: Binding affinity against human cloned endothelin A receptor expressed in LTK-cells
Interpret pIC50 as the negative base-10 log of the concentration measured in mol/L.

Identify measured pIC50 corresponding to COc1ccc(C2(O)OC(=O)C(c3ccc4c(c3)OCO4)=C2Cc2ccc3c(c2)OCO3)cc1 (centres undefined)
7.80

Identify measured pIC50 corresponding to CSc1ccc(C2(O)OC(=O)C(c3ccc4c(c3)OCO4)=C2Cc2ccccc2)cc1 (centres undefined)
6.77

Identify measured pIC50 corresponding to COc1ccc(C2(O)OC(=O)C(c3ccc4c(c3)OCO4)=C2Cc2cc(OC)ccc2OC)cc1 (centres undefined)
8.68

Identify measured pIC50 corresponding to COc1ccc(C2(O)OC(=O)C(c3ccc(OC)c(OC)c3)=C2Cc2ccccc2)cc1 (centres undefined)
7.15

Identify measured pIC50 corresponding to COc1ccc(C2(O)OC(=O)C(c3ccc4c(c3)OCO4)=C2Cc2ccc(S(C)(=O)=O)cc2)cc1 (centres undefined)
8.40

Identify measured pIC50 corresponding to COc1ccc(C2(O)OC(=O)C(c3ccc4c(c3)OCO4)=C2Cc2cccc(C(F)(F)F)c2)cc1 (centres undefined)
7.37

Identify measured pIC50 corresponding to COc1ccc(C2(O)OC(=O)C(c3ccc4c(c3)OCO4)=C2Cc2ccccc2)cc1OC (centres undefined)
7.96

Identify measured pIC50 corresponding to COc1ccc(C2(O)OC(=O)C(c3ccc4c(c3)OCO4)=C2CC2CCCCC2)cc1 (centres undefined)
7.89

New cases:
Identify measured pIC50 corresponding to COc1ccc(C2(O)OC(=O)C(c3ccc4c(c3)OCO4)=C2Cc2ccc3c(c2)OCCO3)cc1 (centres undefined)
8.12

Identify measured pIC50 corresponding to COc1ccc(C2(O)OC(=O)C(c3ccc4c(c3)OCO4)=C2Cc2cccc3ccccc23)cc1 (centres undefined)
7.74

* * *

tested-target: Endothelin receptor type B (Homo sapiens)
Sequence (P24530 whole entry): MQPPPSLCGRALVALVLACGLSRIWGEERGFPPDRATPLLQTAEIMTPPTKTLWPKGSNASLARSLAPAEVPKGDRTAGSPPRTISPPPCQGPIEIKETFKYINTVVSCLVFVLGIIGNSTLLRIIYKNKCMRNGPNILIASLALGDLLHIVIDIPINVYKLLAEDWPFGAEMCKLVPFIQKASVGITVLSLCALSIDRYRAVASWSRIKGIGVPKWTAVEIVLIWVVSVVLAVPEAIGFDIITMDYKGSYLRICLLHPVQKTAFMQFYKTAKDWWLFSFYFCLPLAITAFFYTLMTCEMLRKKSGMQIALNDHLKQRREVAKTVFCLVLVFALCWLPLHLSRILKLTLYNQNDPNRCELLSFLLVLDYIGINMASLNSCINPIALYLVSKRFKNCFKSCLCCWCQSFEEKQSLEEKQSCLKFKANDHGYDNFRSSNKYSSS
protocol-details: Inhibition of Endothelin B receptor mediated (ET-3) release of arachidonic acid from human cloned receptors expressed in CHO-K1 cells
Format: cell-based
So basically: is IC50 under 2 µM? Then Yes. Not under? Then No.

Previously resolved entries follow.
IC50 under 2 µM? Item: COc1ccc(C(=O)/C(Cc2ccc(NC(C)=O)cc2)=C(\C(=O)O)c2ccc3c(c2)OCO3)cc1
No

IC50 under 2 µM? Item: COc1ccc(C(=O)/C(Cc2ccccc2)=C(\C(=O)[O-])c2cc(OC)c3c(c2)OCO3)cc1.[Na+]
No

IC50 under 2 µM? Item: COc1ccc(C(=O)/C(Cc2ccccc2)=C(\C(=O)[O-])c2ccc3c(c2)OCO3)cc1.C[N+](C)(C)CCO
No

IC50 under 2 µM? Item: COc1ccc(C(=O)/C(Cc2cc(OC)c(OC)c(OC)c2)=C(\C(=O)[O-])c2ccc3c(c2)OCO3)cc1C.[Na+]
Yes

In the following, a different compound is considered.
IC50 under 2 µM? Item: COc1ccc(C(=O)/C(Cc2cc(OC)c(OC)c(OC)c2)=C(\C(=O)O)c2cc(OC)c3c(c2)OCO3)cc1C
Yes

* * *

protocol-details: Time to reach maximum observed concentration in oral (5 mg/kg) fasted dogs
Type: ADME, organism-based, Canis lupus familiaris
test-settings: dog, in vivo
measurement-kind: Tmax (min)
Give just the number in min; leave the unit off.

Identify measured Tmax corresponding to COc1ccc(C2(O)OC(=O)C(c3ccc4c(c3)OCO4)=C2Cc2cc(OC)c(OC)c(OC)c2)cc1 (stereo unspecified)
41.4

* * *

protocol-details: Mean of apparent terminal phase elimination half-life after intravenous administration of 2.5 mg/kg in dogs
Type: ADME, organism-based, Canis lupus familiaris
Parameters: dose 2.5 mg/kg, route intravenous
test-settings: dog, in vivo
measurement-kind: half-life (min)
Give just the number in min; leave the unit off.

Identify measured half-life corresponding to COc1ccc(C2(O)OC(=O)C(c3ccc4c(c3)OCO4)=C2Cc2cc(OC)c(OC)c(OC)c2)cc1 (stereo unspecified)
37.2

* * *

tested-target: Endothelin-1 receptor (Homo sapiens)
protocol-details: Binding affinity against human cloned endothelin A receptor expressed in LTK-cells
measurement-kind: IC50 (nM)
Give just the number in nM; leave the unit off.

For Endothelin-1 receptor (Homo sapiens), give the measured IC50 of the entry COc1ccccc1C1(O)OC(=O)C(c2ccc3c(c2)OCO3)=C1Cc1ccccc1 (configuration not stated)
480

For Endothelin-1 receptor (Homo sapiens), give the measured IC50 of the entry COc1ccc(C2(O)OC(=O)C(c3ccc4c(c3)OCO4)=C2Cc2nccc3ccccc23)cc1 (configuration not stated)
10
